The reported numbers originate from patent US11445724B2.

Below, each entry is listed alongside its reported pest or weed control at 200 ppm.
- Tested on: Tetranychus urticae (Two-spotted spider mite)
- Protocol notes: Tetranychus urticae (Two-spotted spider mite) mortality, sprayed bean leaf discs
- Format: in vivo
- Reported conditions: foliar, 192 h, 200 ppm spray on bean leaf discs, mixed ages, egg, larval and adult mortality after 8 days

Solved cases (2 shown):
CCN(C(=O)c1ccc([N+](=O)[O-])cc1Cl)c1cccc(C(=O)Nc2c(Br)cc(C(F)(C(F)(F)F)C(F)(F)F)cc2OC(F)F)c1OC = ≥ 80%
O=C(Nc1cccc(C(=O)Nc2c(Br)cc(C(F)(C(F)(F)F)C(F)(F)F)cc2OC(F)F)c1F)c1ccncc1 = ≥ 80%

Reported pest or weed control at 200 ppm for "CCN(C(=O)c1cc[n+]([O-])cc1)c1cccc(C(=O)Nc2c(Br)cc(C(F)(C(F)(F)F)C(F)(F)F)cc2OC(F)F)c1F" was ≥ 80%
